assay: Lipophilicity, log P of the compound; type: physicochemical; settings: octanol/water
# logP values compiled below
test_readout: logP

>>> df
                            chemical_smiles  assay_result
0  CNC(=O)c1cc(Cl)cc(F)c1NC(=O)c1cc(Br)nn1-c1ncccc1Cl           2.9
1  CNC(=O)c1cc(Cl)cc(Cl)c1NC(=O)c1cc(Br)nn1-c1ncccc1F           2.7
2  CNC(=O)c1cc(F)cc(Cl)c1NC(=O)c1cc(Br)nn1-c1ncccc1Cl           2.6
3  CNC(=O)c1cc(Cl)cc(Cl)c1NC(=O)c1cc(Br)nn1-c1ncccc1Cl             3
4  CNC(=O)c1cc(Cl)cc(Cl)c1NC(=O)c1cc(F)nn1-c1ncccc1Cl           2.6
5  CNC(=O)c1cc(Cl)cc(C)c1NC(=O)c1cc(Br)nn1-c1ncccc1Cl             3

* * *

system: Aphis gossypii; assay: Insecticidal activity against Aphis gossypii glover in cotton/melon plant by combined contact/systemic plant assay; design: unit not given here
We label by threshold. Values of EC50 upper 95% confidence limit strictly beneath 10 are Yes. Values of 10 and up are No.

>>> df
                            chemical_smiles  assigned_class
0  CNC(=O)c1cc(Cl)cc(F)c1NC(=O)c1cc(Br)nn1-c1ncccc1Cl             Yes
1  CNC(=O)c1cc(F)cc(Cl)c1NC(=O)c1cc(Br)nn1-c1ncccc1Cl             Yes
2  CNC(=O)c1cc(F)cc(C)c1NC(=O)c1cc(Br)nn1-c1ncccc1Cl              No
3  CNC(=O)c1cc(F)cc(C)c1NC(=O)c1cc(C(F)(F)F)nn1-c1ncccc1Cl              No
4  CNC(=O)c1cc(Cl)cc(Cl)c1NC(=O)c1cc(C(F)(F)F)nn1-c1ncccc1Cl             Yes
5  CNC(=O)c1cc(Cl)cc(Cl)c1NC(=O)c1cc(Br)nn1-c1ncccc1Cl             Yes
6  CNC(=O)c1cc(F)cc(Cl)c1NC(=O)c1cc(C(F)(F)F)nn1-c1ncccc1Cl             Yes
7  CNC(=O)c1cc(Cl)cc(C)c1NC(=O)c1cc(Br)nn1-c1ncccc1F             Yes
8  CNC(=O)c1cc(Cl)cc(Cl)c1NC(=O)c1cc(F)nn1-c1ncccc1Cl             Yes
9  CNC(=O)c1cc(Cl)cc(Cl)c1NC(=O)c1cc(C(F)(F)F)nn1-c1ncccc1F              No
